Tested on: mouse
ASSAY PROCEDURE: loss of righting reflex test procedure (ataxia)
Format: in vivo
REPORTED CONDITIONS: dose 100 mg/kg
PROPERTY: % Loss of Righting Reflex (%)
Answers are plain numbers, in %.

Consider the following illustrative entries.
Cc1ccc(-c2nc3ccc(C)nc3n2Cc2ccccn2)cc1 [Example 6]: 0
Cc1ccc(-c2nc3cccnc3n2Cc2nc(C)c[nH]2)cc1 [Example 12]: 0
Clc1ccc(-c2nc3ccc(Cl)nc3n2Cc2ncc[nH]2)cc1 [Example 10]: 0
Cc1ccc(-c2nc3ccc(Cl)nc3n2Cc2ccccn2)cc1 [Example 4]: 0

Now for a further compound.
Query: % Loss of Righting Reflex; subject: Cc1ccc2nc(-c3ccc(Cl)cc3)n(Cc3ccccn3)c2n1 [Example 7]
62.5
